test: NCI Yeast Anticancer Drug Screen. Data for the rad50 strain (AID 155);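 note: 0% = growth of vehicle-only cultures of the same strain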; settings: S. cerevisiae rad50 strain growth inhibition; at 11.0 µM
This is part of a sample that, as a whole, favours compounds with a hit. Of some 79,000 tested, about 15% had one in any assay. Activity calls are given as the source filed them. Cut-off read from the data, not from the text of the source: active = growth inhibition above about 70%; inactive = the rest.
Outcome codes: active, inactive

[
  {
    "compound": "N/C(=N/N=C/c1cc(Br)cc(Br)c1O)NO",
    "class-name": "inactive"
  },
  {
    "compound": "CCCCN(CCCC)C(=O)/C=C/c1ccccc1",
    "class-name": "inactive"
  },
  {
    "compound": "CCCCCOC(=S)SC(=O)OCC",
    "class-name": "inactive"
  },
  {
    "compound": "Cc1ccc(CC2(OCCN(C)C)CCC(C(C)(C)C)CC2)cc1 (configuration not stated)",
    "class-name": "inactive"
  },
  {
    "compound": "CC(C)(CCCCC(C)(C)[N+](C)(C)C)[N+](C)(C)C",
    "class-name": "inactive"
  },
  {
    "compound": "COc1cc(/C=N/Nc2nnc3c4ccccc4c4ncccc4c3n2)cc(OC)c1OC",
    "class-name": "inactive"
  },
  {
    "compound": "Cc1csc(=S)n1OC(=O)NC1CCCCC1",
    "class-name": "active"
  },
  {
    "compound": "CCOC(=O)C(Br)C(Br)c1ccccc1Cl (configuration not stated)",
    "class-name": "inactive"
  },
  {
    "compound": "CCCC/C([O-])=C1/C(=O)N(c2ccccc2)N=C1C.CCCC/C([O-])=C1/C(=O)N(c2ccccc2)N=C1C.[Cu+2]",
    "class-name": "inactive"
  },
  {
    "compound": "O=C1Nc2ccc(Br)cc2C1=Nc1ccc2c(c1)OCO2",
    "class-name": "inactive"
  },
  {
    "compound": "CCCC(=O)Oc1c(C)cc([N+](=O)[O-])cc1[N+](=O)[O-]",
    "class-name": "active"
  },
  {
    "compound": "CC(C)=NOC(=O)Nc1ccc(Cl)cc1",
    "class-name": "inactive"
  }
]

----------
Recorded growth inhibition for the following compounds
test: NCI Yeast Anticancer Drug Screen. Data for the rad52 strain (AID 147);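 note: 0% = growth of vehicle-treated control cultures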; settings: S. cerevisiae rad52 mutant growth inhibition; at 11.0 µM; hits give high values
The panel holds about 79,000 compounds, 15% with a hit somewhere; the sample as a whole holds those more often.

[
  {
    "compound": "Cc1cc2cc3cc(C)c(N)cc3nc2cc1N",
    "readout-units": "%",
    "growth inhibition": -7
  },
  {
    "compound": "COc1cccc2c1C(=O)c1c(O)c3c(c(O)c1C2=O)CC(O)(C(O)CO)CC3OC1CC(N2CCOCC2)C(O)C(C)O1 (stereo unspecified)",
    "readout-units": "%",
    "growth inhibition": 96
  },
  {
    "compound": "CC(C)(C)c1ccc(NS(=O)(=O)c2ccc(N)cc2)cc1",
    "readout-units": "%",
    "growth inhibition": 1
  },
  {
    "compound": "CCCCNC1CCC2(SCCS2)c2[nH]c3ccccc3c21 (stereo unspecified)",
    "readout-units": "%",
    "growth inhibition": 3
  },
  {
    "compound": "O=C(CC(=O)n1nc(-c2ccccc2)c(N=Nc2ccc(Cl)cc2)c1-c1ccccc1)Nc1cccc(Cl)c1",
    "readout-units": "%",
    "growth inhibition": 1
  },
  {
    "compound": "CCn1c(O)c(C=Nc2ccccc2)s/c1=N/Nc1nc(-c2ccccc2)cs1",
    "readout-units": "%",
    "growth inhibition": 10
  },
  {
    "compound": "O=C1/C(=C/c2ccccc2)CCCC1CN1CCCCC1 (stereo unspecified)",
    "readout-units": "%",
    "growth inhibition": 56
  },
  {
    "compound": "CC1CC[C@]2(C(=O)O)CCC3(C)C(=CC(=O)C4[C@@]5(C)CCC(=O)C(C)(C)C5CC[C@]43C)[C@@H]2[C@H]1C (stereo partly specified)",
    "readout-units": "%",
    "growth inhibition": 91
  },
  {
    "compound": "COc1c(O)c(C=O)c(Br)c(C=O)c1O",
    "readout-units": "%",
    "growth inhibition": 17
  },
  {
    "compound": "O=C(Nc1ccc(Cl)cc1)Nc1nnc2nc(C(C(=O)c3cccc([N+](=O)[O-])c3Cl)c3nc4nnc(NC(=O)Nc5ccc(Cl)cc5)n4[nH]c3=O)c(=O)[nH]n12",
    "readout-units": "%",
    "growth inhibition": 2
  },
  {
    "compound": "Cc1cc(C(C)(C)CC(C)(C)C)ccc1O",
    "readout-units": "%",
    "growth inhibition": 15
  },
  {
    "compound": "COc1oc(C(=O)NC2CCCCC2)c(-c2ccc(Cl)cc2)c1S(=O)(=O)c1ccccc1",
    "readout-units": "%",
    "growth inhibition": 56
  },
  {
    "compound": "Nc1nc(N)c2nc(CNc3ccc(C(=O)NC(CCC(=O)O)C(=O)O)cc3F)cnc2n1 (stereo unspecified)",
    "readout-units": "%",
    "growth inhibition": 62
  },
  {
    "compound": "CC(C)CCCC(C)C1CCC2C3CCC4=CC(=O)/C(=C\\O)CC4(C)C3CCC12C (stereo unspecified)",
    "readout-units": "%",
    "growth inhibition": 3
  },
  {
    "compound": "CN(C)CCNc1ccc2ncnc3c2c1C(=O)c1ccccc1-3",
    "readout-units": "%",
    "growth inhibition": 96
  },
  {
    "compound": "CC1(C)CC(=O)C(/C=N/c2nc(-c3ccccc3)cs2)=C(O)C1",
    "readout-units": "%",
    "growth inhibition": 19
  },
  {
    "compound": "COc1cc(/C=C2\\NC(=O)N(/C=C3\\C(=O)Oc4ccccc4C3=O)C2=O)ccc1O",
    "readout-units": "%",
    "growth inhibition": 16
  },
  {
    "compound": "Cc1ccc(S/C(=C\\C(=O)O)c2ccccc2)cc1",
    "readout-units": "%",
    "growth inhibition": 12
  },
  {
    "compound": "CNC(=O)OCc1c(COC(=O)NC)c(-c2ccc(Cl)c(Cl)c2)n2c1SCC2",
    "readout-units": "%",
    "growth inhibition": 3
  },
  {
    "compound": "C[Si](C)(C)/C=C/CCNC(C#N)c1ccccc1 (stereo unspecified)",
    "readout-units": "%",
    "growth inhibition": 48
  },
  {
    "compound": "NC(N)=NS(=O)(=O)c1ccc(Nc2c3ccccc3nc3c(C(=O)NCCO)cccc23)cc1",
    "readout-units": "%",
    "growth inhibition": 4
  },
  {
    "compound": "S=c1sc2c(s1)SCCS2",
    "readout-units": "%",
    "growth inhibition": 4
  },
  {
    "compound": "CCC1(OC(=O)CN2CCN(CCO)CC2)C(=O)OCc2c1cc1n(c2=O)Cc2cc3ccccc3nc2-1 (stereo unspecified)",
    "readout-units": "%",
    "growth inhibition": 70
  },
  {
    "compound": "O=C(Oc1ccc2c(c1)CN(Cc1ccccc1)CO2)c1ccccc1",
    "readout-units": "%",
    "growth inhibition": 8
  },
  {
    "compound": "Oc1cccc2cc(Cl)cnc12",
    "readout-units": "%",
    "growth inhibition": 49
  },
  {
    "compound": "CS(=O)(=O)OCCN(CCOS(C)(=O)=O)c1ccc(C=Nc2ccc(-c3csc(COc4ccccc4)n3)cc2)cc1",
    "readout-units": "%",
    "growth inhibition": 76
  },
  {
    "compound": "N#CC(=Nc1ccccc1F)Nc1ccccc1F",
    "readout-units": "%",
    "growth inhibition": -2
  },
  {
    "compound": "O=C1C=C(c2ccccc2)OC1(c1ccccc1)N1CCOCC1 (stereo unspecified)",
    "readout-units": "%",
    "growth inhibition": 3
  },
  {
    "compound": "COC(=O)C1=C(C(=O)OC)C(C(=O)OC)C(C(=O)OC)C(C(=O)OC)(C(=O)OC)C(C(=O)OC)=C1C(=O)OC (stereo unspecified)",
    "readout-units": "%",
    "growth inhibition": 5
  },
  {
    "compound": "CC(C)C(C)/C=C\\C(C)C1CCC2C3=CC=C4CC(O)CCC4(C)C3CCC21C (stereo unspecified)",
    "readout-units": "%",
    "growth inhibition": -1
  },
  {
    "compound": "Cc1cccc2c1nc1ccc(Cl)cc1[n+]2C",
    "readout-units": "%",
    "growth inhibition": 79
  }
]
